Test target: T1, Tbar-aLhr2 WT (Thermococcus barophilus, UniProt F0LJX3 1-863)
T1 sequence: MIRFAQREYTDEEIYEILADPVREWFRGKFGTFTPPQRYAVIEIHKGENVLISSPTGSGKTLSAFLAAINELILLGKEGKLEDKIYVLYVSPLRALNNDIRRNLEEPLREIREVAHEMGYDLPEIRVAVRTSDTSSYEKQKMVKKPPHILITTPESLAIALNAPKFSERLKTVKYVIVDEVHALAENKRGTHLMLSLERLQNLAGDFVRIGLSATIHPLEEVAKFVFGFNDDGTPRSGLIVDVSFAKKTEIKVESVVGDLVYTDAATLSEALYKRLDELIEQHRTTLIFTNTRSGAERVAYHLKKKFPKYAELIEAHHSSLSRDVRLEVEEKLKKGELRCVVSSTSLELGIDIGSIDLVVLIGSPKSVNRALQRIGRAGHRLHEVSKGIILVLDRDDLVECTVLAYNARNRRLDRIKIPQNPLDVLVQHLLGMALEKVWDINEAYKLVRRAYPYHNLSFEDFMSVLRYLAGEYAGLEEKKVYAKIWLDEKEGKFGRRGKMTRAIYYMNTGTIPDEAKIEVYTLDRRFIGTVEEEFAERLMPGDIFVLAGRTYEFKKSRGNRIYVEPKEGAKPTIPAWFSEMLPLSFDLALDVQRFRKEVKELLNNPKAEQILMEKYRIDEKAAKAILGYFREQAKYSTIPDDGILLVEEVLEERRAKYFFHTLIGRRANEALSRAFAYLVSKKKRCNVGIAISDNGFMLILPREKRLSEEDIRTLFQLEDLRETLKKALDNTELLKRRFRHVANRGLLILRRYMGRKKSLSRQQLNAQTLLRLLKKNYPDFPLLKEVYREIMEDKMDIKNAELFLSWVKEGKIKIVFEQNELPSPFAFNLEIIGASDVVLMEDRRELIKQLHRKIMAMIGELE
Assay notes: filter binding; 5 mM Mg2+; 25 mM Tris-HCl pH 8, 50 mM NaAc, 5 mM MgCl2, 2.5 mM beta-mercaptoethanol; protein preincubated 10 min 65 C, binding 15 min 30 C; 0.5 nM substrate (Methods); Resu
Conditions: protein: recombinant; tags: untagged; chain copies: 4; label: 5'-32P; single strand
Assay readout: Kd (nM)
Numbers only, in nM.

Below, 3 binders whose answers are already recorded.
GGACATGCTGTCTAGAGACTATCGAT (ssDNA) [DNA26]
58
AUCGAUAGUCUCUAGACAGCAUGUCCUAGCAAGCCAGAAUUCGGCAGCGU (ssRNA) [RNA50]
41
ACGCUGCCGAAUUCUGGCUUGCUAGG (ssRNA) [RNA26]
80

Now consider the entry below.
Lookup: Please look up its Kd: ATCGATAGTCTCTAGACAGCATGTCCTAGCAAGCCAGAATTCGGCAGCGT (ssDNA) [DNA50]
Found: 39
